# System: SNB-19 CNS
# testDescription: NCI tumour cell line growth inhibition, 48 h
measurementType: TGI

C=CCC1(O)c2ccccc2C(=O)c2c(O)ccc(O)c21 (stereo unspecified) :: 68.6 µM

Q: Please supply the value of reported TGI for the item `Cc1nc2ccc(CN(C)c3ccc(C(=O)N[C@@H](CCC(=O)O)C(=O)O)s3)cc2c(=O)[nH]1`
A: > 100 µM

Q: Please supply the value of reported TGI for the item `FC(F)(F)C1(Cl)C(c2ccccc2)=C1c1ccccc1`
A: 31.9 µM

Q: Please supply the value of reported TGI for the item `C[n+]1c(/C=C\C=C\N2CCCCC2)sc2ccccc21`
A: 17.2 µM

Q: Please supply the value of reported TGI for the item COc1cc(/C=C/C(=O)OCC23CC[C@@]4(C(=O)O)CCC(C)[C@H](C)C4C2=CCC2[C@@]4(C)CC[C@H](O)C(C)(C)C4CC[C@]23C)ccc1O (stereo partly specified)
A: > 100 µM

Q: Please supply the value of reported TGI for the item `[O-]/[N+](=C\c1ccccc1)[C@H](COCc1ccccc1)c1ccccc1`
A: > 100 µM

Q: Please supply the value of reported TGI for the item `CO/C(=N\N=C\c1cc(OC)ccc1OC)c1ccncc1`
A: > 10 µM
